System: RPMI-8226
Method: NCI tumour cell line growth inhibition, 48 h
Calls of active or inactive are those of the source. No stated cut-off is given here; in the data, active = GI50 up to about 1.1 µM and inactive = higher.
Value Kind: GI50

These recorded examples may help you get a feel for the data.
INSERT INTO assay_data (compound, tested_on, observed_measurement) VALUES
  ('O=C1CSC2(CC(/C=C/c3cccc([N+](=O)[O-])c3)=NN2c2cccc(S(=O)(=O)O)c2)N1c1nc2ccccc2s1 (centres undefined)', 'RPMI-8226', '17.4 µM (inactive)'),
  ('COc1ccc(/C=C2/NC(=S)N=C2Cl)cc1', 'RPMI-8226', '> 100 µM (inactive)'),
  ('Cc1cc(S(N)(=O)=O)c(S/C(=N\Nc2ccc([N+](=O)[O-])cc2)c2ccc(Cl)cc2)cc1Cl', 'RPMI-8226', '2.58 µM (inactive)'),
  ('COc1ccc2cc(CNCCCCCCCCCCCCNCc3ccc4cc(OC)ccc4c3)ccc2c1', 'RPMI-8226', '12.8 µM (inactive)'),
  ('CCOC(=O)c1c(NC(=O)c2cccs2)sc2c1CCC2', 'RPMI-8226', '> 100 µM (inactive)'),
  ('Cc1ccccc1C(=O)Oc1ccc(Oc2ccccc2)cc1', 'RPMI-8226', '> 100 µM (inactive)'),
  ('COc1ccc(/C=C2\C[C@H]3[C@@H]4CCC5=C[C@@H](N6CCCC6)CC[C@]5(C)[C@H]4CC[C@]3(C)[C@H]2O)cc1', 'RPMI-8226', '2.97 µM (inactive)'),
  ('O=[N+]([O-])/C=C/c1ccc(Cl)cc1Cl', 'RPMI-8226', '2.44 µM (inactive)');

Short answer for CC1=NN(c2nc(N)nc(NS(=O)(=O)c3cc(C)c(Cl)cc3S)n2)C(C)(C)C1 : GI50 was > 10 µM (inactive)

====

Test system: UO-31
Method: NCI tumour cell line growth inhibition, 48 h
The source made the active and inactive calls. No stated cut-off is given here; in the data, active = GI50 up to about 1.1 µM and inactive = higher.
Value Kind: GI50

INSERT INTO measurements (compound, tested_on, value_kind, observed_measurement) VALUES
  ('CCN(CC)S(=O)(=O)c1ccc2[nH]c(NC(=O)OC)nc2c1', 'UO-31', 'GI50', '46.3 µM (inactive)');

Give me GI50 for each of these compounds, listed below.
1. S=C(N/N=C\C(=N/NC(=S)N1CCCCC1)c1ccccc1)N1CCCCC1
2. COc1ccc(C[C@H]2COC(=O)[C@@H]2Cc2ccc(Br)cc2)cc1OC
3. CC1=Nc2c(C#N)ncn2N=C(C)C1
4. O=[N+]([O-])c1ccc2c(c1)C(N1CCN(CCO)CC1)Cc1ccc(F)cc1S2 (configuration not stated)
5. O=C(O)C(C(C(=O)O)P(=O)(O)O)P(=O)(O)O (configuration not stated)

Result:
1: 1.74 µM (inactive); 2: 6.18 µM (inactive); 3: > 100 µM (inactive); 4: 4.39 µM (inactive); 5: > 100 µM (inactive)

# map each compound to its GI50
1. COc1ccc(S(=O)(=O)Nc2ccc(-c3csc(N4C(=O)/C(=C/c5ccccc5[N+](=O)[O-])N=C4c4ccccc4)n3)cc2)cc1Cl
2. COc1ccc(C(c2ccccc2)N2C(=O)CCC2C(=O)O)cc1OC (configuration not stated)
3. N#CSC#CCCC#CSC#N
4. CN1N=C(Nc2ccccc2)Sc2c1cnn(-c1ccccc1)c2=O
5. N#Cc1ccc(/C=C2\Cc3ccccc3C2=O)cc1
6. CC(=O)C1=C(C)N(c2ccc(C)cc2)C2(O)C=CC(O)=C3C(=O)c4ccccc4C(=O)C312 (configuration not stated)
7. CC(=O)/C=C\C1CC2C=CC1C2 (configuration not stated)

Result:
["32.3 µM (inactive)", "> 100 µM (inactive)", "18 µM (inactive)", "83.2 µM (inactive)", "43.4 µM (inactive)", "14.1 µM (inactive)", "41 µM (inactive)"]

Each of the following entries comes with a recorded value; kindly state GI50 for each.
1. O=C1Nc2ccccc2/C1=C\c1c(Cl)nc2n1CCS2
2. Clc1cccc(C2ON=C(c3ccccc3)N2C23CC4CC(CC(C4)C2)C3)c1Cl (configuration not stated)
3. CCOC(=O)c1ccc(NCc2ccc3oc(=O)c(-c4ccccc4)nc3c2)cc1
4. Cc1nc2ccc(Cl)cc2c2c1CCN2c1ccccc1

Result:
1: 27 µM (inactive); 2: 5.02 µM (inactive); 3: 27 µM (inactive); 4: 8.89 µM (inactive)

For every record below, what is its GI50?
1. CCN(CC)CCNc1ccc([N+](=O)[O-])c2nc3ccc(OC)cc3c(N)c12
2. CC1(C)N=C(N)N=C(N)N1CCCCc1ccccc1
3. CCCC1=C(CC)C(C(=O)Nc2c(C)cccc2C)=NC(S)N1 (configuration not stated)
4. CC(=O)Oc1cc(C(F)(F)F)ccc1C(=O)OC1(C)OC(=O)c2ccc(C(F)(F)F)cc2O1 (configuration not stated)
5. O=C(Nc1nc2ccc([N+](=O)[O-])cc2[n+]([O-])n1)C(F)(F)F

Result:
1.67 µM (inactive)
64.3 µM (inactive)
> 100 µM (inactive)
> 100 µM (inactive)
40.8 µM (inactive)
